SYSTEM TESTED: VDR with SRC-1 (Homo sapiens, UniProt P11473)
Sequence (P11473 whole entry): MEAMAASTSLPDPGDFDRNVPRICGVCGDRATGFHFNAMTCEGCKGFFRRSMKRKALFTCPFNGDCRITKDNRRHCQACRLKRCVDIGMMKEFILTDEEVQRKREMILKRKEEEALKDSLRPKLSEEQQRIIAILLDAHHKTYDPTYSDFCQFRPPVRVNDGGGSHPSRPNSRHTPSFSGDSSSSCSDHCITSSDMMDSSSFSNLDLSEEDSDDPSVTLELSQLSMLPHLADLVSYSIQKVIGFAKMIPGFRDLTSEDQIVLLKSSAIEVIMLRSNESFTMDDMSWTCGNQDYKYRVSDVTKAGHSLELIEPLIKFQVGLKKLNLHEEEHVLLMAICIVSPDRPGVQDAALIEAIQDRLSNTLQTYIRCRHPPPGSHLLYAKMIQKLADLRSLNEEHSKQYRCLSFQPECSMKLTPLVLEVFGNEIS
Sequence (Q15788 595-771 partner limits assumed): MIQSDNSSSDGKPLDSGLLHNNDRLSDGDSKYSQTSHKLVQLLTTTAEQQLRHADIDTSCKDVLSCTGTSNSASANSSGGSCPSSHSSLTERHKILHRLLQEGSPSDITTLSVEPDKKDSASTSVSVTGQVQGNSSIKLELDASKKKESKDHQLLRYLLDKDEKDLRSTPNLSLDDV
TEST: Mammalian two-hybrid assay, VDR binding to SRC-1
Reported EC50 values are given for each entry in this list.
Report the figure in nM without appending any unit label.

>>> df
                                   molecule  test_result
0  C=C1[C@H](O)CC(=C/C=C2\CCC[C@]3(C)[C@@H]([C@H](C)CC#C[C@@](O)(CC)C45CC6CC(CC(C6)C4)C5)CC[C@@H]23)C[C@H]1O [ADKM3]         10.2
1  C=C1[C@H](O)CC(=C/C=C2\CCC[C@]3(C)[C@@H]([C@H](C)CC#C[C@](O)(CCCC)C45CC6CC(CC(C6)C4)C5)CC[C@@H]23)C[C@H]1O [ADKM6]          2.4

Note: attention shifts to another entry.
Short answer for C=C1[C@H](O)CC(=C/C=C2\CCC[C@]3(C)[C@@H]([C@H](C)CC#C[C@@](C)(O)C45CC6CC(CC(C6)C4)C5)CC[C@@H]23)C[C@H]1O [ADKM2] : EC50 was 0.6

Data credit: paper PMC10377034
